All values here come from patent US20250270304A1.

Please provide measured fold-change of OD 450 over negative control (BSA) for the entries that follow.
target of assay: T1, Inhibin A (Homo sapiens (Human), UniProt P05111 233-366; P08476 311-426)
T1 sequence 1: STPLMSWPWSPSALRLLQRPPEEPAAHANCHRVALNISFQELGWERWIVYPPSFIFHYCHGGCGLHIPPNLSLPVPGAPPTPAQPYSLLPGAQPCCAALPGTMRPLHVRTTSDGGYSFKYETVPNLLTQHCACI
T1 sequence 2: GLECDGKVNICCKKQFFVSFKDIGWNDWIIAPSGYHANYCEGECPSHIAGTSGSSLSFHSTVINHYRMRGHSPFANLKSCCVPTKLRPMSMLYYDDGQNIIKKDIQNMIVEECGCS
method summary: ELISA, coated antigen, OD450
Give bare numbers, in fold.

- AB448 (antibody, IgG1, V domains shown) VH: QVQLQESGPGLVKPSQTLSLTCTVSGLSLSNAKMGVNWIRQPPGKGLEWIGYVSTTGTTDYNPSLKSRVTMSVDTSKNQFSLKVNSVTAADTAVYYCARAGYPDVWGKGTTVTVSS VL: DIQMTQSPSSVSASVGDRVTITCRASQNIGAALAWYQQKPGKAPKLLIYGASTREYGVPSRFSGSGSGTDFTLTISSLQPEDFANYYCQQYTAYPLTFGGGTKVEIK: 0.77
- AB352 (antibody, IgG1, V domains shown) VH: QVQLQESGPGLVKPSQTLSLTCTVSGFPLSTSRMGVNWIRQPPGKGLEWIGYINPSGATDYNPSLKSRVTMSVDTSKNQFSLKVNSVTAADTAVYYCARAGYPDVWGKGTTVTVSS VL: EIVMTQSPATLSLSPGERATLSCRASQSVSTHLAWYQQKPGQAPRLLIYDATNRATGIPARFSGSGSGTDFTLTISSLEPEDFAVYYCLQYTNYPWTFGGGTKVEIK: 0.61

Next up:
Prompt: // lookup fold-change of OD 450 over negative control (BSA) for AB432 (antibody, IgG1, V domains shown) VH: QVQLQESGPGLVKPSQTLSLTCTVSGVSLSNVRMGVNWIRQPPGKGLEWIGYVNPSGSTDYNPSLKSRVTMSVDTSKNQFSLKVNSVTAADTAVYYCARAGYPDVWGKGTLVTVSS VL: EIVMTQSPATLSLSPGERATLSCRASQSISSSQLAWYQQKPGQAPRLLIYGASTRATGIPARFSGSGSGTDFTLTISSLEPEDFAVYYCQQYNDRPRTFGGGTKVEIK
Response: 0.74
